List of IC50 values.
test system: HCC827; assay: Antiproliferative activity against human HCC827 cells harboring EGFR E746 to A750 deletion mutant after 72 hrs by MTT assay; type: functional, cell-based; settings: HCC827, 72 h
Assay Readout: IC50 (nM)

> print(dat)
                             chemical.smiles  unit.abbrev  comparison.symbol  observed.result
 1  C=CC(=O)N[C@@H]1CCCN(c2nc(Nc3ccccc3)nc3cnc(Nc4ccc(N5CCN(C)CC5)cn4)cc23)C1           nM                  =               54
 2  C=CC(=O)N[C@H]1CCN(c2nc(Nc3ccccc3)nc3cnc(Nc4ccc(N5CCN(C)CC5)cn4)cc23)C1           nM                  =               69
 3  C=CC(=O)Nc1cccc(Nc2cc3c(N4CCCC4)nc(OCc4ccc(F)cc4)nc3cn2)n1           nM                  >            10000
 4  C=CC(=O)N[C@@H]1CCN(c2nc(Nc3ccccc3)nc3cnc(Nc4ccc(N5CCN(C)CC5)cn4)cc23)C1           nM                  =               20
 5  C=CC(=O)Nc1cccc(Nc2cc3c(N4CCCC4)nc(Nc4cccc(F)c4)nc3cn2)n1           nM                  >            10000
 6  C=CC(=O)N[C@@H]1CCN(c2ncnc3cnc(Nc4ccc(N5CCN(C)CC5)cn4)cc23)C1           nM                  =             3520
 7  C=CC(=O)N1CC[C@@H](Nc2nc(Nc3ccccc3)nc3cnc(Nc4ccc(N5CCN(C)CC5)cn4)cc23)C1           nM                  =              170
 8  C=CC(=O)Nc1cc(Nc2nccc(-c3cn(C)c4ccccc34)n2)c(OC)cc1N(C)CCN(C)C           nM                  =               27
 9  C=CC(=O)Nc1cccc(Nc2cc3c(N4CCCC4)nc(OCC4CCCCC4)nc3cn2)n1           nM                  >            10000
10  C=CC(=O)Nc1cccc(Nc2cc3c(N4CCCC4)nc(OCC4CCOCC4)nc3cn2)n1           nM                  =             8700
11  C=CC(=O)Nc1cccc(Nc2cc3c(N4CCCC4)nc(OCc4ccccc4)nc3cn2)n1           nM                  >            10000
12  C=CC(=O)N[C@@H]1CCN(c2ncnc3cnc(Nc4ccc(OCCN(C)C)cc4OC)cc23)C1           nM                  >            10000
13  C=CC(=O)Nc1cccc(Nc2cc3c(N4CCCC4)nc(OC4CCOCC4)nc3cn2)n1           nM                  =             2740
14  C=CC(=O)N[C@@H]1CCN(c2ncnc3cnc(Nc4ccc(OCCOC)cc4OC)cc23)C1           nM                  >            10000
15  C=CC(=O)N[C@H]1CCCN(c2nc(Nc3ccccc3)nc3cnc(Nc4ccc(N5CCN(C)CC5)cn4)cc23)C1           nM                  =               73
16  C=CC(=O)N1CC[C@H](Nc2nc(Nc3ccccc3)nc3cnc(Nc4ccc(N5CCN(C)CC5)cn4)cc23)C1           nM                  =              270
17  C=CC(=O)N[C@@H]1CCN(c2ncnc3cnc(Nc4ccc(N5CCN(C)CC5)cc4OC)cc23)C1           nM                  >            10000
18  C=CC(=O)Nc1cccc(Nc2cc3c(N4CCCC4)nc(Nc4ccccc4)nc3cn2)n1           nM                  >            10000

* * *

target: Epidermal growth factor receptor (Homo sapiens, UniProt P00533, C797S/L858R/T790M); assay: Inhibition of EGFR L858R/T790M/C797S triple mutant (unknown origin) using Poly(Glu,Tyr) as substrate after 40 mins by Kinase-Glo luminescence assay
Sequence (P00533 25-1210 T790M/C797S/L858R limits assumed): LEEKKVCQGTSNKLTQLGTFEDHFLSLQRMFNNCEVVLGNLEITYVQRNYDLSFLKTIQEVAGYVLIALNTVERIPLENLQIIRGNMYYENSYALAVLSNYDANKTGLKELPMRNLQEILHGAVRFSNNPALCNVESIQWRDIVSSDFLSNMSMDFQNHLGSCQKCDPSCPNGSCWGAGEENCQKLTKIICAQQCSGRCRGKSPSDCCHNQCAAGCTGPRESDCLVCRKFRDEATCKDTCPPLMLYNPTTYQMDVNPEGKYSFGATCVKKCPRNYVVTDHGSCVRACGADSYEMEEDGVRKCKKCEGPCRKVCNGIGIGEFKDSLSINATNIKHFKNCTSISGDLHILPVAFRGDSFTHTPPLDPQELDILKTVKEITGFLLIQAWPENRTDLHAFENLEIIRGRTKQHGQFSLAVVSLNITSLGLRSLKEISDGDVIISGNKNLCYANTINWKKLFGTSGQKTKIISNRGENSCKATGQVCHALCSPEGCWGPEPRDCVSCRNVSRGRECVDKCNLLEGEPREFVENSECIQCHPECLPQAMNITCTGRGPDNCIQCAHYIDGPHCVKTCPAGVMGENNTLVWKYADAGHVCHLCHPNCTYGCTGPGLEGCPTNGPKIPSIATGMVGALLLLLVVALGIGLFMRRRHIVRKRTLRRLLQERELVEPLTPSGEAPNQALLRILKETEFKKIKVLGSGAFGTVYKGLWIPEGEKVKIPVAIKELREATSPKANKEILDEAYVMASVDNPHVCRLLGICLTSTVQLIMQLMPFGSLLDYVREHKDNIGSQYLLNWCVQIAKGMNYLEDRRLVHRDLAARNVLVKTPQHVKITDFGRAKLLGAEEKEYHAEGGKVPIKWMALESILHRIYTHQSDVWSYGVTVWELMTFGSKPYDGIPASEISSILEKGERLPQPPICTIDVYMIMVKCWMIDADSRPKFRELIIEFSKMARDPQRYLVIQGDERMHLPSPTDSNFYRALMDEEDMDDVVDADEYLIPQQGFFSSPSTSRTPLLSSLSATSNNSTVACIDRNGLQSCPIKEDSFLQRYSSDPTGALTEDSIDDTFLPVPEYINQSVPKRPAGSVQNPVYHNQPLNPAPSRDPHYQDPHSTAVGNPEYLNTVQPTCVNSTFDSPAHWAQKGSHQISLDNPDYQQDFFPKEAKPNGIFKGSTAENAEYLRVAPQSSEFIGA
pIC50: −log10 of the molar value.
Assay Readout: pIC50

> print(dat)
                            chemical.smiles  observed.result
1  C=CC(=O)N[C@H]1CCN(c2nc(Nc3ccccc3)nc3cnc(Nc4ccc(N5CCN(C)CC5)cn4)cc23)C1             6.55
2  C=CC(=O)N[C@H]1CCCN(c2nc(Nc3ccccc3)nc3cnc(Nc4ccc(N5CCN(C)CC5)cn4)cc23)C1           < 6.30
3  C=CC(=O)N[C@@H]1CCCN(c2nc(Nc3ccccc3)nc3cnc(Nc4ccc(N5CCN(C)CC5)cn4)cc23)C1           < 6.30
4  C=CC(=O)N1CC[C@@H](Nc2nc(Nc3ccccc3)nc3cnc(Nc4ccc(N5CCN(C)CC5)cn4)cc23)C1           < 6.30
5  C=CC(=O)N1CC[C@H](Nc2nc(Nc3ccccc3)nc3cnc(Nc4ccc(N5CCN(C)CC5)cn4)cc23)C1           < 6.30

* * *

UniProt P00533 measurements of IC50, listed per entry.
Assay Readout: IC50 (nM)

> print(dat)
                            chemical.smiles  assayed.target  observed.result
1  C=CC(=O)N[C@@H]1CCCN(c2nc(Nc3ccccc3)nc3cnc(Nc4ccc(N5CCN(C)CC5)cn4)cc23)C1  UniProt P00533              5.4
2  C=CC(=O)N1CC[C@@H](Nc2nc(Nc3ccccc3)nc3cnc(Nc4ccc(N5CCN(C)CC5)cn4)cc23)C1  UniProt P00533              3.3
3  C=CC(=O)N[C@H]1CCN(c2nc(Nc3ccccc3)nc3cnc(Nc4ccc(N5CCN(C)CC5)cn4)cc23)C1  UniProt P00533              1.5
4  C=CC(=O)N[C@@H]1CCN(c2nc(Nc3ccccc3)nc3cnc(Nc4ccc(N5CCN(C)CC5)cn4)cc23)C1  UniProt P00533              2.7

* * *

molecular target: Epidermal growth factor receptor (Homo sapiens, UniProt P00533, L858R/T790M); assay: Inhibition of EGFR L858R/T790M double mutant (unknown origin) using Poly(Glu,Tyr) as substrate after 40 mins by Kinase-Glo luminescence assay
Sequence (P00533 25-1210 T790M/L858R limits assumed): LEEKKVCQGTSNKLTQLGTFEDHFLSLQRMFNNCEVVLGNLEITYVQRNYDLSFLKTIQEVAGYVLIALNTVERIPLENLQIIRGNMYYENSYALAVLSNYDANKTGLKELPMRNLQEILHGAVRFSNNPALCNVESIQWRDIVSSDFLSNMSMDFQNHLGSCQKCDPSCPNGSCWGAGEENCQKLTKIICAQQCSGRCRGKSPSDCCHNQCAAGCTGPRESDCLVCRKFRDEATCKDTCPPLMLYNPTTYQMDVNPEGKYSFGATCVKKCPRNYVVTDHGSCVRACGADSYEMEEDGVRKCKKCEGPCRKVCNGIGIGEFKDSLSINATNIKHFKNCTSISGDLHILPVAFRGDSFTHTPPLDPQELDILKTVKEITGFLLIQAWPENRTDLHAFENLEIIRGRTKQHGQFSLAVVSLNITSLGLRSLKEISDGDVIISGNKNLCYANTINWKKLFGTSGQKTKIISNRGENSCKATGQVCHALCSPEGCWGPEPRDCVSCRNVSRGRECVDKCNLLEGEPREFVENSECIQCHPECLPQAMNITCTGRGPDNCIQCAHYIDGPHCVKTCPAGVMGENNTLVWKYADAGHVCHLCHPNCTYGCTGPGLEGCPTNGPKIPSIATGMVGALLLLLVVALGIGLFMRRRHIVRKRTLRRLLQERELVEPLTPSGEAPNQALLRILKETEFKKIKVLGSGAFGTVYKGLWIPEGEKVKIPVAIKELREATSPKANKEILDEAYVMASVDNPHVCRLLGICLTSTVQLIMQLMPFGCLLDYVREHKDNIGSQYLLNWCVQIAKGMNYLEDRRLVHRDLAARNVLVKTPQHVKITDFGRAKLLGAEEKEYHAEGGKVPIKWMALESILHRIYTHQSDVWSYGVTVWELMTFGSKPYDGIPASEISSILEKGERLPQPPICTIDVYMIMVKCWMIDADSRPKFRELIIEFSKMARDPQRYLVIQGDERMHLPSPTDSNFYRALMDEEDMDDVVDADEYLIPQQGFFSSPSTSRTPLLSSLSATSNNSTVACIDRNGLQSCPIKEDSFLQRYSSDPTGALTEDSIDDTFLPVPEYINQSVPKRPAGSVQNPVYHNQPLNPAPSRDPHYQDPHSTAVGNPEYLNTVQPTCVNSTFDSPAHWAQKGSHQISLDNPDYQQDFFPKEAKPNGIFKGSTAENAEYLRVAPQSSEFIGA
List of IC50 values.
Assay Readout: IC50 (nM)

> print(dat)
                            chemical.smiles  assay.readout  unit.abbrev  observed.result
1  C=CC(=O)N[C@H]1CCCN(c2nc(Nc3ccccc3)nc3cnc(Nc4ccc(N5CCN(C)CC5)cn4)cc23)C1           IC50           nM              361
2  C=CC(=O)N1CC[C@@H](Nc2nc(Nc3ccccc3)nc3cnc(Nc4ccc(N5CCN(C)CC5)cn4)cc23)C1           IC50           nM              106
3  C=CC(=O)N1CC[C@H](Nc2nc(Nc3ccccc3)nc3cnc(Nc4ccc(N5CCN(C)CC5)cn4)cc23)C1           IC50           nM              238
4  C=CC(=O)N[C@@H]1CCN(c2nc(Nc3ccccc3)nc3cnc(Nc4ccc(N5CCN(C)CC5)cn4)cc23)C1           IC50           nM             36.6
5  C=CC(=O)N[C@H]1CCN(c2nc(Nc3ccccc3)nc3cnc(Nc4ccc(N5CCN(C)CC5)cn4)cc23)C1           IC50           nM             26.5
6  C=CC(=O)N[C@@H]1CCCN(c2nc(Nc3ccccc3)nc3cnc(Nc4ccc(N5CCN(C)CC5)cn4)cc23)C1           IC50           nM              164

* * *

target: Epidermal growth factor receptor (Homo sapiens, UniProt P00533, L858R); assay: Inhibition of EGFR L858R mutant (unknown origin) using Poly(Glu,Tyr) as substrate after 40 mins by Kinase-Glo luminescence assay
Sequence (P00533 25-1210 L858R limits assumed): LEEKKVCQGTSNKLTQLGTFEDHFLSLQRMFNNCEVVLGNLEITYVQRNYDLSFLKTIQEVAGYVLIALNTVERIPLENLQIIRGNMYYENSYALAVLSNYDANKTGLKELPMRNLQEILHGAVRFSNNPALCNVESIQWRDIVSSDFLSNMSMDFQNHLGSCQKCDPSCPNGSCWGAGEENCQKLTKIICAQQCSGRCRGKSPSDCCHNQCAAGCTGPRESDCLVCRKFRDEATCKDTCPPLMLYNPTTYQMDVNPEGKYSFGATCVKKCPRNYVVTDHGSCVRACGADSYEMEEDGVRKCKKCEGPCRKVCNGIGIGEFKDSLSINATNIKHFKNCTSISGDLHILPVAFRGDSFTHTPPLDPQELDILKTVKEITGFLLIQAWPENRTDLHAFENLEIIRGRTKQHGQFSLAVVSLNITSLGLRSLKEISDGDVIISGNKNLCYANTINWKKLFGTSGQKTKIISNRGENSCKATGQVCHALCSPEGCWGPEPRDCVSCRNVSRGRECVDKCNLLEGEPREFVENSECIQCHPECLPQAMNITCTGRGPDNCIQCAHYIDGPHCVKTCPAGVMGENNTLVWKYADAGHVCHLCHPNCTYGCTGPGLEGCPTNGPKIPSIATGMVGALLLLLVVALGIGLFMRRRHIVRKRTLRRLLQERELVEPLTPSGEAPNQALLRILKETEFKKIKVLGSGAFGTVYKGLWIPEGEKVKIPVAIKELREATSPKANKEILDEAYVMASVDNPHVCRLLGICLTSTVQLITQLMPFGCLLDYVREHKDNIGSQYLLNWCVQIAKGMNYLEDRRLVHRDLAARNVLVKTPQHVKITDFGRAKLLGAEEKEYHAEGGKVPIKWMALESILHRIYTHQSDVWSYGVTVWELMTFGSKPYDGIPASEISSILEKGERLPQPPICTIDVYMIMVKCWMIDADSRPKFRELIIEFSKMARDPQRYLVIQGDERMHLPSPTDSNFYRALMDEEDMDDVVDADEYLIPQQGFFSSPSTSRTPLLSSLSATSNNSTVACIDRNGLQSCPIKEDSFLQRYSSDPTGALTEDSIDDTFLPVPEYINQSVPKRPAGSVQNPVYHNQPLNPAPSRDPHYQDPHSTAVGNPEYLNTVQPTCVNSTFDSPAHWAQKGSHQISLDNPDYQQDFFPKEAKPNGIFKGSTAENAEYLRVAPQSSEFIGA
List of IC50 values.
Assay Readout: IC50 (nM)

> print(dat)
                            chemical.smiles  observed.result
1  C=CC(=O)N1CC[C@@H](Nc2nc(Nc3ccccc3)nc3cnc(Nc4ccc(N5CCN(C)CC5)cn4)cc23)C1              4.6
2  C=CC(=O)N[C@H]1CCCN(c2nc(Nc3ccccc3)nc3cnc(Nc4ccc(N5CCN(C)CC5)cn4)cc23)C1             14.2
3  C=CC(=O)N[C@@H]1CCN(c2nc(Nc3ccccc3)nc3cnc(Nc4ccc(N5CCN(C)CC5)cn4)cc23)C1              4.7
4  C=CC(=O)N1CC[C@H](Nc2nc(Nc3ccccc3)nc3cnc(Nc4ccc(N5CCN(C)CC5)cn4)cc23)C1             10.8
5  C=CC(=O)N[C@@H]1CCCN(c2nc(Nc3ccccc3)nc3cnc(Nc4ccc(N5CCN(C)CC5)cn4)cc23)C1              6.5
6  C=CC(=O)N[C@H]1CCN(c2nc(Nc3ccccc3)nc3cnc(Nc4ccc(N5CCN(C)CC5)cn4)cc23)C1              3.2
